The reported numbers originate from PubChem BioAssay (NCI).

Here the recorded TGI is given for each entry.
Test system: DMS 273 small cell lung
Assay: NCI tumour cell line growth inhibition, 48 h
Kindly provide the numeric value in µM only, without the unit symbol.

Consider the reported TGI for these compounds:
[
  {
    "COMPOUND": "CN1CCc2cc3c4cc2C1Cc1ccc(cc1)Oc1cc(ccc1O)CC1c2c(cc(O)c(c2O4)O3)CCN1C (centres undefined)",
    "TEST TARGET": "DMS 273 small cell lung",
    "MEASURED": 3.84
  },
  {
    "COMPOUND": "CCOC(=O)C1=C(c2ccccc2)N(C(C)=O)Cc2ccccc21",
    "TEST TARGET": "DMS 273 small cell lung",
    "MEASURED": 29.8
  },
  {
    "COMPOUND": "COC(=O)N/N=C(/c1nc2ccc([N+](=O)[O-])cc2[nH]c1=O)C(O)c1ccc(OC)c(OC)c1 (centres undefined)",
    "TEST TARGET": "DMS 273 small cell lung",
    "MEASURED": 63.7
  }
]

Now for a further compound.
Q: Check the records and state TGI for `CS(=O)(=O)OCCN(CCOS(C)(=O)=O)c1ccc(/C=N/Nc2ncnc3nc[nH]c23)cc1`
Result: 35.4
